Test: Cytotoxicity in rat C6 cells assessed as cell viability at 20 uM after 24 hrs by MTT assay
Type: cell-based
Details: read-out: Activity

[
  {
    "compound": "CC(C)(O)[C@]12O[C@H]1C[C@H]1C(=CC[C@@H]3[C@]1(C)CCC[C@@]3(C)C(=O)O)[C@H]2O",
    "viability at 24 h, 20 µM, %": 92.5
  },
  {
    "compound": "CC(C)c1ccc2c(c1)[C@H](O)C[C@H]1[C@](C)(CO)CCC[C@]21C",
    "viability at 24 h, 20 µM, %": 89.3
  },
  {
    "compound": "CC(C)c1ccc2c(c1)CC[C@H]1[C@](C)(C(=O)O)CCC[C@]21C [DEHYDROABIETIC ACID]",
    "viability at 24 h, 20 µM, %": 92.3
  }
]

---

Experiment: Cytotoxicity in rat C6 cells assessed as cell viability at 20 uM after 24 hrs by MTT assay
Assay type: cell-based
Settings: read-out: Activity
Entries and their viability at 24 h, 20 µM values follow.

[
  {
    "structure.as.smiles": "CC(C)C1=C[C@@]23CC[C@@H]4[C@](C)(CCC[C@@]4(C)C(=O)O)[C@H]2C[C@@H]1OO3",
    "viability at 24 h, 20 µM / %": 102
  },
  {
    "structure.as.smiles": "CCCCC/C=C/C(=O)CCc1ccc(O)c(OC)c1",
    "viability at 24 h, 20 µM / %": 119
  },
  {
    "structure.as.smiles": "CC(=O)OC[C@]1(C)CCC[C@]2(C)c3ccc(C(C)(C)O)cc3CC[C@@H]12",
    "viability at 24 h, 20 µM / %": 85.5
  },
  {
    "structure.as.smiles": "CC(C)[C@@]12CC[C@@H]3[C@@]4(C)CCC[C@@](C)(C(=O)O)[C@@H]4CC(=O)[C@]3(O)[C@@H]1O2",
    "viability at 24 h, 20 µM / %": 91.4
  }
]

Data credit: ChEMBL document CHEMBL3797062
